Attribution: patent US20250270209A1

- target.of.assay: wild type LRRK2 overexpressed in recombinant HEK-293T cells (Homo sapiens, UniProt Q5S007)
- experimental.protocol: pS935 LRRK2 Cell Assay (HTRF, phospho-LRRK2 Ser935)
- experimental.setup: LRRK2 Inhibition, Table 8, 2 hours compound incubation
I'd appreciate it if you marked entries Yes when IC50 is lower than 300 nM and No when it is not.

compound=C[C@@H]1C[C@H](n2c(CC(=O)NCc3ccccn3)nc3cnc4ccc(C#N)cc4c32)CCO1 target_of_assay="wild type LRRK2 overexpressed in recombinant HEK-293T cells (Homo sapiens, UniProt Q5S007)" class_name=Yes
compound=C[C@@H]1C[C@H](n2c(CC(=O)Nc3ccc(=O)n(C)c3)nc3cnc4ccc(C#N)cc4c32)CCO1 target_of_assay="wild type LRRK2 overexpressed in recombinant HEK-293T cells (Homo sapiens, UniProt Q5S007)" class_name=No
compound=COCC1(CNC(=O)Cc2nc3cnc4ccc(C#N)cc4c3n2[C@@H]2CCO[C@H](C)C2)CC1 target_of_assay="wild type LRRK2 overexpressed in recombinant HEK-293T cells (Homo sapiens, UniProt Q5S007)" class_name=Yes
compound="C[C@@H]1C[C@H](n2c(C3CC(=O)N(C4COC4)C3)nc3cnc4ccc(C#N)cc4c32)CCO1 (stereo partly drawn)" target_of_assay="wild type LRRK2 overexpressed in recombinant HEK-293T cells (Homo sapiens, UniProt Q5S007)" class_name=No
compound=C[C@@H]1C[C@H](n2c(CNC(=O)OC(C)(C)C)nc3cnc4ccc(C#N)cc4c32)CCO1 target_of_assay="wild type LRRK2 overexpressed in recombinant HEK-293T cells (Homo sapiens, UniProt Q5S007)" class_name=No
compound=COc1ncnc(C)c1NC(=O)Cc1nc2cnc3ccc(C#N)cc3c2n1[C@@H]1CCO[C@H](C)C1 target_of_assay="wild type LRRK2 overexpressed in recombinant HEK-293T cells (Homo sapiens, UniProt Q5S007)" class_name=Yes
compound=Cc1cc(CNC(=O)Cc2nc3cnc4ccc(C#N)cc4c3n2[C@@H]2CCO[C@H](C)C2)no1 target_of_assay="wild type LRRK2 overexpressed in recombinant HEK-293T cells (Homo sapiens, UniProt Q5S007)" class_name=Yes
compound=C[C@@H]1C[C@H](n2c(CN3CCCCC3=O)nc3cnc4ccc(C#N)cc4c32)CCO1 target_of_assay="wild type LRRK2 overexpressed in recombinant HEK-293T cells (Homo sapiens, UniProt Q5S007)" class_name=No
compound=C[C@@H]1C[C@H](n2c(CC(=O)NCC(F)(F)F)nc3cnc4ccc(C#N)cc4c32)CCO1 target_of_assay="wild type LRRK2 overexpressed in recombinant HEK-293T cells (Homo sapiens, UniProt Q5S007)" class_name=Yes
compound=C[C@@H]1C[C@H](n2c([C@@H]3CN(CC4CC4)C(=O)O3)nc3cnc4ccc(C#N)cc4c32)CCO1 target_of_assay="wild type LRRK2 overexpressed in recombinant HEK-293T cells (Homo sapiens, UniProt Q5S007)" class_name=No
compound=C[C@@H]1C[C@H](n2c(CC(=O)NCCCO)nc3cnc4ccc(C#N)cc4c32)CCO1 target_of_assay="wild type LRRK2 overexpressed in recombinant HEK-293T cells (Homo sapiens, UniProt Q5S007)" class_name=No
compound=Cc1cc(C)c(NC(=O)Cc2nc3cnc4ccc(C#N)cc4c3n2[C@@H]2CCO[C@H](C)C2)cn1 target_of_assay="wild type LRRK2 overexpressed in recombinant HEK-293T cells (Homo sapiens, UniProt Q5S007)" class_name=Yes
compound=C[C@@H]1C[C@H](n2c(CCC(=O)NCC3CC3)nc3cnc4ccc(C#N)cc4c32)CCO1 target_of_assay="wild type LRRK2 overexpressed in recombinant HEK-293T cells (Homo sapiens, UniProt Q5S007)" class_name=No
compound=C[C@@H]1C[C@H](n2c(CC(=O)N[C@H]3CCCc4cccnc43)nc3cnc4ccc(C#N)cc4c32)CCO1 target_of_assay="wild type LRRK2 overexpressed in recombinant HEK-293T cells (Homo sapiens, UniProt Q5S007)" class_name=Yes
compound=C[C@@H]1C[C@H](n2c(CC(=O)NCC3CC3)nc3cnc4ccc(C#N)cc4c32)CCO1 target_of_assay="wild type LRRK2 overexpressed in recombinant HEK-293T cells (Homo sapiens, UniProt Q5S007)" class_name=Yes

* * *

Listing of recorded pIC50 by entry.
- target.of.assay: LRRK2 wild type enzyme (Homo sapiens, UniProt Q5S007)
- Sequence (Q5S007 whole entry): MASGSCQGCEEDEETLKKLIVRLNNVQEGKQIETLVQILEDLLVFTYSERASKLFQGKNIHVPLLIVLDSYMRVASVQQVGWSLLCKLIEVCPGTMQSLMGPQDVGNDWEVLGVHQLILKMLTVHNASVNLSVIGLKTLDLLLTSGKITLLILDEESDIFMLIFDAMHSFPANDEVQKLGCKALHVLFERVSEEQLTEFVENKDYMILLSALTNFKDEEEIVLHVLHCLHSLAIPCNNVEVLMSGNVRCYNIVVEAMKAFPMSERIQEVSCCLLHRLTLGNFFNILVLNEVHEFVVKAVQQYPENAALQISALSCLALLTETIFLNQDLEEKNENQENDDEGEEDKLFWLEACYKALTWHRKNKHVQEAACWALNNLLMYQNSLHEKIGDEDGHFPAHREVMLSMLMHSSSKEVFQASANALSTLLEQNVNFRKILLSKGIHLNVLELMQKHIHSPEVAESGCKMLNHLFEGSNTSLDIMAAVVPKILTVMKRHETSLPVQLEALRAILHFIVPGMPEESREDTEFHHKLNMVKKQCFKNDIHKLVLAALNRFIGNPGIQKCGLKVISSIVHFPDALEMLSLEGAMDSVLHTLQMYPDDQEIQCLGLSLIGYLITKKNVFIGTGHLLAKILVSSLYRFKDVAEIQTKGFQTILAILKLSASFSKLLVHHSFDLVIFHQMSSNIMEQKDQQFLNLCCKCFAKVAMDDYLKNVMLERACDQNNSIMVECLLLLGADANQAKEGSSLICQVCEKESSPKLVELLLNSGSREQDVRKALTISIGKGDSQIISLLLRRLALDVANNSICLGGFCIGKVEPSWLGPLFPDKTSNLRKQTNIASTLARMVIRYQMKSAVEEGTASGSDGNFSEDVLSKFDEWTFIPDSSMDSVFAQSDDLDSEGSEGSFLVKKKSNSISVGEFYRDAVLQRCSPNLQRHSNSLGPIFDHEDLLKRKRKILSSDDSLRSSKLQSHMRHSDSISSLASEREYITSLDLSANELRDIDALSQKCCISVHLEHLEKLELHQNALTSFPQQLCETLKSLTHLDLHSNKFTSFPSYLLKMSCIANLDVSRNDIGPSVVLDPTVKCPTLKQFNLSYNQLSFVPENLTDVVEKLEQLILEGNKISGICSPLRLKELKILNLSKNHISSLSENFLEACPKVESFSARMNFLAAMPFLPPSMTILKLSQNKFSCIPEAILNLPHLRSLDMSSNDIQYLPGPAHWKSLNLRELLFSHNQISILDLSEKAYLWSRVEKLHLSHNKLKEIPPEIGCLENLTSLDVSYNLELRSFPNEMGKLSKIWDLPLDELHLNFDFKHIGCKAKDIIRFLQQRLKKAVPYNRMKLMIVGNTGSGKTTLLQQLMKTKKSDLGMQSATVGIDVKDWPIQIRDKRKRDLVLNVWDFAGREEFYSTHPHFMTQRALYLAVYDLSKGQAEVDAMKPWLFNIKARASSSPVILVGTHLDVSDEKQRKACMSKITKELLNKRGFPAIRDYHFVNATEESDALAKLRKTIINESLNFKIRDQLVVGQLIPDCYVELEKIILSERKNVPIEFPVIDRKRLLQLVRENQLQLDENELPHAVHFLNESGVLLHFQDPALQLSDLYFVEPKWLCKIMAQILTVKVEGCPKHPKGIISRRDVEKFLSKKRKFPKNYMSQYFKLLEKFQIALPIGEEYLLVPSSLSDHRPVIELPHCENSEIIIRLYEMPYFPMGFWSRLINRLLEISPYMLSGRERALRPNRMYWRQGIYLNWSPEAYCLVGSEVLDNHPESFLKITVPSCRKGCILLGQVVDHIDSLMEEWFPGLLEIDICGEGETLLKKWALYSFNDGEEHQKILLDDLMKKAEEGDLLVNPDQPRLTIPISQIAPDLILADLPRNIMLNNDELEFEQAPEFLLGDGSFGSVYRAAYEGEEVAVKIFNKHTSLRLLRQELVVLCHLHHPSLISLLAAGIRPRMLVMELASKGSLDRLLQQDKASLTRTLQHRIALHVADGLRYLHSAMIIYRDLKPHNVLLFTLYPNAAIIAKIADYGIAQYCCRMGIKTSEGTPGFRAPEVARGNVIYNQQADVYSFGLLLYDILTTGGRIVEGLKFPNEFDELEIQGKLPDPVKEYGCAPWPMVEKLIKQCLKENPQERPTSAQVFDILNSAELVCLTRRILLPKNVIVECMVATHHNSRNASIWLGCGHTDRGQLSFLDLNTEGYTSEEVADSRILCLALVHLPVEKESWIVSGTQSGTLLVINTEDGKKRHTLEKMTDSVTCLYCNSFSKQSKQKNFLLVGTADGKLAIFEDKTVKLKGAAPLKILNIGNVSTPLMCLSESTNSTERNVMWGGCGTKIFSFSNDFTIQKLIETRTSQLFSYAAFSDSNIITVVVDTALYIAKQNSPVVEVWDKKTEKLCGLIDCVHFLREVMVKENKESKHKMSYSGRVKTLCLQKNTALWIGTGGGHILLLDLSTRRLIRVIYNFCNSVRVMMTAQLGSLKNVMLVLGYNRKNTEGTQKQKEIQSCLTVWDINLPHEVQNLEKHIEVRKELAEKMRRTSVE
pIC50: −log10 of the molar value.
quantity: pIC50

molecule=Cc1cnncc1NC(=O)Cc1nc2cnc3ccc(C#N)cc3c2n1[C@@H]1CCO[C@H](C)C1 quantity=pIC50 recorded_result=9.28
molecule="C[C@@H]1C[C@H](n2c(C3CCC(=O)N(CC4CC4)C3)nc3cnc4ccc(C#N)cc4c32)CCO1 (stereo partly shown)" quantity=pIC50 recorded_result=8.12
molecule=COc1nccc(F)c1NC(=O)Cc1nc2cnc3ccc(C#N)cc3c2n1[C@@H]1CCO[C@H](C)C1 quantity=pIC50 recorded_result=9.44
molecule=C[C@@H]1C[C@H](n2c(CN3CCCC3=O)nc3cnc4ccc(C#N)cc4c32)CCO1 quantity=pIC50 recorded_result=8.37
molecule=C[C@@H]1C[C@H](n2c(CC(=O)Nc3cncnc3O)nc3cnc4ccc(C#N)cc4c32)CCO1 quantity=pIC50 recorded_result=9.32
molecule=Cc1noc(C)c1NC(=O)Cc1nc2cnc3ccc(C#N)cc3c2n1[C@@H]1CCO[C@H](C)C1 quantity=pIC50 recorded_result=9.42
molecule=C[C@@H]1C[C@H](n2c(CC(=O)Nc3cncnc3)nc3cnc4ccc(C#N)cc4c32)CCO1 quantity=pIC50 recorded_result=8.97

* * *

Listing of recorded pIC50 by entry.
- target.of.assay: wild type LRRK2 overexpressed in recombinant HEK-293T cells (Homo sapiens)
- experimental.protocol: pS935 LRRK2 Cell Assay (HTRF, phospho-LRRK2 Ser935)
- experimental.setup: LRRK2 Inhibition, Table 8, 2 hours compound incubation
pIC50: −log10 of the molar value.
quantity: pIC50

molecule=C[C@@H]1C[C@H](n2c(CC(=O)NC3(C)COC3)nc3cnc4ccc(Cl)cc4c32)CCO1 recorded_result=7.11
molecule="C[C@@H]1C[C@H](n2c(CC(=O)N[C@@H]3C[C@H]3c3cccnc3)nc3cnc4ccc(C#N)cc4c32)CCO1 [Compound 348]" recorded_result=7.49
molecule=C[C@@H]1C[C@H](n2c(CC(=O)N[C@H]3C[C@@H]3c3cccnc3)nc3cnc4ccc(C#N)cc4c32)CCO1 recorded_result=6.84
molecule=C[C@@H]1C[C@H](n2c(CC(=O)N[C@H]3C[C@@H](OCc4ccn(C)n4)C3)nc3cnc4ccc(C#N)cc4c32)CCO1 recorded_result=7.02
molecule="C[C@@H]1C[C@H](n2c(CC(=O)NC3CC3F)nc3cnc4ccc(C#N)cc4c32)CCO1 (stereo in doubt)" recorded_result=7.15
molecule=C[C@@H]1C[C@H](n2c(CC3CN(C(=O)c4cnn(C)c4)C3)nc3cnc4ccc(C#N)cc4c32)CCO1 recorded_result=5.81
molecule=C[C@@H]1C[C@H](n2c(CC(=O)Nc3cnccc3C#N)nc3cnc4ccc(C#N)cc4c32)CCO1 recorded_result=8.07

* * *

Hi! I'm sharing some IC50 results obtained with LRRK2 wild type enzyme (Homo sapiens, UniProt Q5S007).
quantity: IC50

molecule=C[C@@H]1C[C@H](n2c(CC(=O)Nc3ccccc3)nc3cnc4ccc(C#N)cc4c32)CCO1 recorded_result="0.507 nM"
molecule=C[C@@H]1C[C@H](n2c(CC(=O)Nc3cnn(C)c(=O)c3)nc3cnc4ccc(C#N)cc4c32)CCO1 recorded_result="0.486 nM"
molecule=Cc1ccnc(C)c1NC(=O)Cc1nc2cnc3ccc(C#N)cc3c2n1[C@@H]1CCO[C@H](C)C1 recorded_result="0.485 nM"
molecule=C[C@@H]1C[C@H](n2c(CNc3nccn3C)nc3cnc4ccc(C#N)cc4c32)CCO1 recorded_result="9.07 nM"
molecule=C[C@@H]1C[C@H](n2c(CC(=O)NC3CCOCC3)nc3cnc4ccc(C#N)cc4c32)CCO1 recorded_result="0.551 nM"
molecule=C[C@@H]1C[C@H](n2c(CC(=O)NC3(c4ncccn4)CC3)nc3cnc4ccc(C#N)cc4c32)CCO1 recorded_result="1.24 nM"
molecule=Cc1onc(NC(=O)Cc2nc3cnc4ccc(C#N)cc4c3n2[C@@H]2CCO[C@H](C)C2)c1C recorded_result="0.439 nM"
molecule=COc1ncc(NC(=O)Cc2nc3cnc4ccc(C#N)cc4c3n2[C@@H]2CCO[C@H](C)C2)cn1 recorded_result="0.527 nM"
molecule=C[C@@H]1C[C@H](n2c(CC(=O)Nc3cnccn3)nc3cnc4ccc(C#N)cc4c32)CCO1 recorded_result="0.337 nM"
molecule="C[C@@H]1C[C@H](n2c(CC(=O)N[C@@H]3C[C@H]3F)nc3cnc4ccc(C#N)cc4c32)CCO1 [Compound 246]" recorded_result="1.1 nM"
molecule=C[C@@H]1C[C@H](n2c(CC(=O)Nc3cn(C)ccc3=O)nc3cnc4ccc(C#N)cc4c32)CCO1 recorded_result="0.659 nM"
molecule=COCCn1ccc(NC(=O)Cc2nc3cnc4ccc(C#N)cc4c3n2[C@@H]2CCO[C@H](C)C2)n1 recorded_result="0.316 nM"
molecule=C[C@@H]1C[C@H](n2c(CNC(=O)OC3CC3)nc3cnc4ccc(C#N)cc4c32)CCO1 recorded_result="1.92 nM"
molecule=COc1ncnc(C)c1NC(=O)Cc1nc2cnc3ccc(C#N)cc3c2n1[C@@H]1CCO[C@H](C)C1 recorded_result="0.466 nM"
molecule="CN1CC(n2c(CC(=O)NCC3CC3)nc3cnc4ccc(C#N)cc4c32)CCC1=O (single isomer, unassigned) [Compound 90]" recorded_result="1.42 nM"
molecule=C[C@@H]1C[C@H](n2c(CC(=O)NCC3(CO)CC3)nc3cnc4ccc(C#N)cc4c32)CCO1 recorded_result="0.69 nM"
molecule=C[C@@H]1C[C@H](n2c(CC(=O)Nc3ccn(CCO)n3)nc3cnc4ccc(C#N)cc4c32)CCO1 recorded_result="0.32 nM"
molecule=C[C@@H]1C[C@H](n2c(CC(=O)NC3(C)COC3)nc3cnc4ccc(Cl)cc4c32)CCO1 recorded_result="2.72 nM"
molecule=C[C@@H]1C[C@H](n2c(CC(=O)Nc3ncccn3)nc3cnc4ccc(Cl)cc4c32)CCO1 recorded_result="0.395 nM"
molecule=C[C@@H]1C[C@H](n2c(CC(=O)NCc3cnn(C)c3)nc3cnc4ccc(C#N)cc4c32)CCO1 recorded_result="0.473 nM"
molecule="C[C@@H]1C[C@H](n2c(CC(=O)N[C@@H]3C[C@H]3F)nc3cnc4ccc(C#N)cc4c32)CCO1 [Compound 277]" recorded_result="0.828 nM"
molecule=C[C@@H]1C[C@H](n2c(CC(=O)NCc3cccc(C(F)(F)F)n3)nc3cnc4ccc(C#N)cc4c32)CCO1 recorded_result="0.295 nM"
molecule=C[C@@H]1C[C@H](n2c(CC(=O)N(C)C)nc3cnc4ccc(C#N)cc4c32)CCO1 recorded_result="6.28 nM"
molecule="CN1CC(n2c(C3CC(=O)N(CC4CC4)C3)nc3cnc4ccc(C#N)cc4c32)CCC1=O (single isomer, unassigned) [Compound 139]" recorded_result="56 nM"
molecule="Cc1nc2n(n1)CC(NC(=O)Cc1nc3cnc4ccc(C#N)cc4c3n1[C@@H]1CCO[C@H](C)C1)CC2 (some centres unmarked)" recorded_result="1.39 nM"
molecule=C[C@@H]1C[C@H](n2c(CNS(C)(=O)=O)nc3cnc4ccc(C#N)cc4c32)CCO1 recorded_result="5.18 nM"
molecule=C[C@@H]1C[C@H](n2c(CC3CN(C(=O)c4ccccn4)C3)nc3cnc4ccc(C#N)cc4c32)CCO1 recorded_result="2.39 nM"
molecule=CC(C)NC(=O)Cc1nc2cnc3ccc(C#N)cc3c2n1[C@@H]1CCO[C@H](C)C1 recorded_result="7.01 nM"
molecule=C[C@@H]1C[C@H](n2c(CC(=O)Nc3cncnc3)nc3cnc4ccc(Cl)cc4c32)CCO1 recorded_result="0.608 nM"
